meta.source: BindingDB's records for doi:10.1021/jm00081a009

Method Description: Opioid receptor kappa agonist potency was determined in vitro using rabbit vas deferens(LVD) preparation
Output true for records whose IC50 is lower than 2 nM, false for records at or above 2 nM.

Answered cases to consult:
[
  {
    "Molecule": "C[C@H]1CCC[C@@H](CN2CCCC2)N1C(=O)Cc1ccc(Cl)c(Cl)c1",
    "Class": "true"
  },
  {
    "Molecule": "C=C1CCN(CC2CCCCN2C(=O)Cc2ccc(Cl)c(Cl)c2)C1 (configuration not stated)",
    "Class": "false"
  },
  {
    "Molecule": "C=CCC1(CN2CCCC2)CCCCN1C(=O)Cc1ccc(Cl)c(Cl)c1 (configuration not stated)",
    "Class": "false"
  },
  {
    "Molecule": "O=C(Cc1ccc(Cl)c(Cl)c1)N1CCCCC1CN1CCC(O)C1 (configuration not stated)",
    "Class": "true"
  },
  {
    "Molecule": "O=C(Cc1ccc(Cl)c(Cl)c1)N1CCC[C@@H](O)[C@H]1CN1CCCC1",
    "Class": "false"
  }
]

Prompt: Determine if O=C(Cc1ccc(Cl)c(Cl)c1)N1CCCCC1CN1CCCCC1 (configuration not stated) shows IC50 strictly lower than 2 nM.
Completion: false

Prompt: For this molecule, is IC50 lower than 2 nM? `COC(=O)[C@@H]1CCN(C(=O)Cc2ccc(Cl)c(Cl)c2)[C@H](CN2CCCC2)C1`
Completion: false

---

Method Description: Kappa-opioid receptor agonist potency in vitro using rabbit vas deferens(LVD) preparation
Outcome Measure: pIC50
When answering, recall that pIC50 equals minus log10 of the concentration in mol/L, and write that number alone.

Some compounds with known pIC50 results, for comparison:
[
  {
    "Compound": "COC(=O)C1=CCCN(CC2CCCCN2C(=O)Cc2ccc(Cl)c(Cl)c2)C1 (stereo unspecified)",
    "pIC50": 7.82
  },
  {
    "Compound": "O=C(Cc1ccc(Cl)c(Cl)c1)N1CCCCC1CN1CCCO1 (stereo unspecified)",
    "pIC50": 7.16
  },
  {
    "Compound": "O=C1CC[C@@H](CN2CCCC2)N(C(=O)Cc2ccc(Cl)c(Cl)c2)C1",
    "pIC50": 6.41
  }
]

Prompt: Look up and report measured pIC50 for this entry: O=C(Cc1ccc(Cl)c(Cl)c1)N1CCCCC1CN1CC=CCC1 (stereo unspecified)
Completion: 8.20

Prompt: Check the records and state pIC50 for O=C1CCCN(C(=O)Cc2ccc(Cl)c(Cl)c2)C1CN1CCCC1 (stereo unspecified)
Completion: 5.70

Prompt: Note down pIC50 recorded for `O=C(Cc1ccc(Cl)c(Cl)c1)N1CC2(CC[C@H]1CN1CCCC1)OCCO2`
Completion: 6.80

---

Measured IC50 by item
Method Description: Kappa-opioid receptor agonist potency in vitro using rabbit vas deferens(LVD) preparation
# number only, unit nM dropped from output

Example compounds with recorded IC50:
[
  {
    "Molecular String": "COC(=O)[C@@H]1CCC[C@@H](CN2CCCC2)N1C(=O)Cc1ccc(Cl)c(Cl)c1",
    "IC50 [nM]": 110
  },
  {
    "Molecular String": "NC(=O)[C@@H]1CCN(C(=O)Cc2ccc(Cl)c(Cl)c2)[C@H](CN2CCCC2)C1",
    "IC50 [nM]": 1200
  }
]

Continue with the next compound.
Prompt: Tell me measured IC50 for `COC(=O)[C@H]1CC[C@@H](CN2CCCC2)N(C(=O)Cc2ccc(Cl)c(Cl)c2)C1` please.
Completion: 300
